Tested Target: ΔN(1–60)-PRMT8 (Homo sapiens)
Sequence (Q9NR22 61-394, stated change not applied): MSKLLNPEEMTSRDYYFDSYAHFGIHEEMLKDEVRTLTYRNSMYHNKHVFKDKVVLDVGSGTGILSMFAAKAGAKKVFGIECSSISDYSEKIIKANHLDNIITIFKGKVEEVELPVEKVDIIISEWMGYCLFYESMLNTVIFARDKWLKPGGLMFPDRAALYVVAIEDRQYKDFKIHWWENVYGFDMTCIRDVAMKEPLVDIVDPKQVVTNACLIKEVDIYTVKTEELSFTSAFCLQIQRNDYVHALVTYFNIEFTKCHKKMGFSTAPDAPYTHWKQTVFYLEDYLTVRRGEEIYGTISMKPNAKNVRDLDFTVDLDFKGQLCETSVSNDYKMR
Experiment Description: Radioisotope-based filter-binding (HotSpot) assay, PRMT8
Condition: read-out: IC50 PRMT8 (Figure 5 heatmap)
pIC50: −log10 of the molar value.
Property Measured: pIC50

I. COC(=O)c1cc(O)c2cc(NC(=O)NCCCCNC(=N)NCC[C@H]3O[C@@H](n4cnc5c(N)ncnc54)[C@H](O)[C@@H]3O)ccc2c1 [12f]
II. COC(=O)c1cc(O)c2cc(NC(=O)NCCCCNC(=N)NCCC[C@H]3O[C@@H](n4cnc5c(N)ncnc54)[C@H](O)[C@@H]3O)ccc2c1 [12g]
[in] Pick one: I or II . Which has the bigger pIC50 number? Write the label of whichever entry you select.
[out] II
(II: 5.85, I: 5.22)

Sourced from paper PMC9469100
